Target: UniProt:P43405
Assay: Kinase profiling SYK
Type: biochemical
Settings: 100 micromolar inhibitor concentration; 100 is no change
Consider the following molecules and their measured residual kinase activity, SYK readings.
parameter: residual kinase activity, SYK

1. COc1ccc2sc(NC(=O)c3ccccc3)nc2c1	83
2. O=C(Nc1nc2cc(O)ccc2s1)c1ccccn1	106
3. COc1ccc2sc(NC(=O)c3cccc(C(N)=O)c3)nc2c1	108
4. O=C(Nc1nc2cc(O)ccc2s1)c1ccncc1	75
5. COC(=O)c1cccc(C(=O)Nc2nc3cc(OC)ccc3s2)c1	96
6. CC(=O)Nc1nc2ccccc2s1	116
7. O=C(Nc1nc2ccc(C(F)(F)F)cc2s1)c1ccccc1	120
8. O=C(Nc1nc2cc(O)ccc2s1)c1cccnc1	86
9. O=C(Nc1nc2cc(O)ccc2s1)c1ccccc1	80
10. O=C(Nc1nc2ccc(O)cc2s1)c1cccnc1	71
